molecular target: LAT1 (Homo sapiens, UniProt Q01650); assay: [3H]-gabapentin uptake competition assay in LN229 cells; conditions: read-out: IC50, [3H]-gabapentin uptake competition
Sequence (Q01650 whole entry): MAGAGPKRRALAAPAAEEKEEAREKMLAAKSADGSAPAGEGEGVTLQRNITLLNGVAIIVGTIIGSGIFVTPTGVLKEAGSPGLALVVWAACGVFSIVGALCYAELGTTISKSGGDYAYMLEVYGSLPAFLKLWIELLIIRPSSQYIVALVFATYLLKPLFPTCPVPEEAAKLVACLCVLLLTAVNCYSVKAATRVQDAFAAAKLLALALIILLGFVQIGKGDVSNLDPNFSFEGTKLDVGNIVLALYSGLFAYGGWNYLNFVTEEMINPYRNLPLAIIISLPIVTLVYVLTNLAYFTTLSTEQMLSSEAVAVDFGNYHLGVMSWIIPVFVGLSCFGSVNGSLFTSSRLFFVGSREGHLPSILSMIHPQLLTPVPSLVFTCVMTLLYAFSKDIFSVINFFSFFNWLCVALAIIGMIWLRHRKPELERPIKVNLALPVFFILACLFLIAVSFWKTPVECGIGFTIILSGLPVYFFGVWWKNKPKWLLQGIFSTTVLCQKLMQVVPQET
Sequence (P08195 102-630 partner): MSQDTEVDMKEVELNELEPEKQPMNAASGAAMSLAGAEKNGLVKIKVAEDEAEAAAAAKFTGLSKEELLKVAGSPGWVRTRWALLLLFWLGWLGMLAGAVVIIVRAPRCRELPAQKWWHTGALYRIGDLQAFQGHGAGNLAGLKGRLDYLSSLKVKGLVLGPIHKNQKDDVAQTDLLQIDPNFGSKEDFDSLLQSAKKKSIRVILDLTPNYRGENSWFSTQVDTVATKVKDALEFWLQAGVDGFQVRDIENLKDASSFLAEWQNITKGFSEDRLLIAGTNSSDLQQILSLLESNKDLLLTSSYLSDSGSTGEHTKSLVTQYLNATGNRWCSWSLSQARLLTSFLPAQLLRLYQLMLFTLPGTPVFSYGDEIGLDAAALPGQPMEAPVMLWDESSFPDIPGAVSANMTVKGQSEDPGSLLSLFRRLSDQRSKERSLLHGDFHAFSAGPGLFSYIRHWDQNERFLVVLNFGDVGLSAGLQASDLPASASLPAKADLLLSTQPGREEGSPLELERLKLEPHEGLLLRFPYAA
experimental endpoint: pIC50
// pIC50: -log10(molar conc.)

// returns pIC50 for `Nc1cc(COc2c(Cl)cc(C[C@H](N)C(=O)O)cc2Cl)c2oc(-c3ccccc3)nc2c1` with LAT1 (Homo sapiens, UniProt Q01650); value = 7.54
